The values you see were collected from patent US20180362629A1.

Target: T1, recombinant canine β NGF (canine, UniProt Q29074 110-229 (pig entry))
T1 chain: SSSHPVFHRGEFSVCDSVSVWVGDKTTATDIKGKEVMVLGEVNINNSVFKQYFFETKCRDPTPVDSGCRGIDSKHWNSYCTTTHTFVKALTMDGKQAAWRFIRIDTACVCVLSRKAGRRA
Assay: cell-based or functional assay
Field 'label' (enum: 1 / 0). Set to 1 when IC50, canine NGF-induced TF-1 cell proliferation (70 pM canine NGF) is strictly under 10 pM; else 0.

{"binder": "Mu73 Canine IgG1/k Chimera (antibody, V domains shown, also called PR-1290654; lot 1785658) VH: QVQLQQPGAELVKPGASVKLSCKASGYTFTNYWMHWVKQRPGQGLEWIGRIDPYGGGTKHNEKFKRKATVTADKSSSTAYILLSSLTSEDSAVYYCTRSGYDYYFDVWGTGTTVTVSS VL: DIQMTQSPASLSASVGETVTVTCRASENIYSFLAWHQQKQGKSPQLLVYNANTLAEGVPSRFSGSGSGTQFSLKINSLQPEDFGSYYCQHHFGTPFTFGSGTKLEIKR", "assignedCategory": 1}

Turning now to a further binder:
Field: below-cutoff. Rule: recorded IC50, canine NGF-induced TF-1 cell proliferation (70 pM canine NGF) strictly less than 10 pM. Subject: Mu82 Canine IgG1/k Chimera (antibody, V domains shown, The exact junction was not checked; also called PR-1290658; lot 1785732) VH: QVQLKESGPGLVAPSQSLSITCTVSGFSLTGYNINWVRQPPGKGLEWLGMIWGYGDTDYNSALKSRLSISKDNSKSQVFLKMNSLQTDDTARYYCARDHYGGNDWYFDVWGTGTTVTVSS VL: DIQMTQTTSSLSASLGDRVTITCRASQDITNYLNWYQQKPDGTVKLLIYYTSRLHSGVPSRFSGSGSGTDYSLTISNLDQEDIATYFCQQGKTLPRTFGGGTKLEIKR 1
